Assay: MTT cytotoxicity assay, IOSE80PC
Details: human, IOSE80PC immortalized ovarian surface epithelial cells
Listing: IC50 at 48 h of selected molecules
Measurement label: IC50 at 48 h

>  <Molecule>
COc1cc([C@@H]2OC[C@@H]3[C@H]2CO[C@H]3c2ccc3c(c2)OCO3)ccc1O [Compound 2, (−)-pluviatilol]

>  <Result>
179 µM

$$$$
>  <Molecule>
C/C=C\CC/C=C/C=C/C(=O)NCC(C)C

>  <Result>
> 200 µM

$$$$
>  <Molecule>
C/C=C/C=C\CC/C=C/C=C/C(=O)NCC(C)C

>  <Result>
> 200 µM

$$$$

====

Listing: IC50 of selected compounds
Test system: SKOV3 cells
Assay: MTT cytotoxicity assay, SKOV3
Type: cell-based
Details: Homo sapiens, SK-OV-3; SKOV3, MTT, 48 h; read-out: IC50 (cytotoxicity)

>  <Compound>
C/C=C\CC/C=C/C=C/C(=O)NCC(C)C

>  <IC50>
> 200 µM

$$$$
>  <Compound>
COc1cc([C@@H]2OC[C@@H]3[C@H]2CO[C@H]3c2ccc3c(c2)OCO3)ccc1O [Compound 2, (−)-pluviatilol]

>  <IC50>
174 µM

$$$$
>  <Compound>
C/C=C/C=C\CC/C=C/C=C/C(=O)NCC(C)C

>  <IC50>
> 200 µM

$$$$

====

Assay: MTT cytotoxicity assay, IOSE80PC
Conditions: human
Measurement label: IC50 at 48 h

>  <Compound>
CCC(=O)c1cc2c(cc1O)OCO2 [Compound 3, kakuol]

>  <Result>
> 200 µM

$$$$
>  <Compound>
c1cc2c(cc1[C@H]1OC[C@H]3[C@@H]1CO[C@H]3c1ccc3c(c1)OCO3)OCO2 [Compound 1, (−)-asarinin]

>  <Result>
> 200 µM

$$$$
>  <Compound>
CCC(=O)c1cc2c(cc1OC)OCO2 [Compound 4, methylkakuol]

>  <Result>
> 200 µM

$$$$
